target: epithelial sodium channel (ENaC) (Homo sapiens, UniProt P37088+P51168+P51170); experiment: Short circuit current (ISC) measurements in human bronchial epithelial cells, inhibition of amiloride-sensitive ISC; conditions: Human Bronchial Epithelial cells (HBECs) at air-liquid interface, Ussing chamber, apical addition
Sequence (P37088 whole entry): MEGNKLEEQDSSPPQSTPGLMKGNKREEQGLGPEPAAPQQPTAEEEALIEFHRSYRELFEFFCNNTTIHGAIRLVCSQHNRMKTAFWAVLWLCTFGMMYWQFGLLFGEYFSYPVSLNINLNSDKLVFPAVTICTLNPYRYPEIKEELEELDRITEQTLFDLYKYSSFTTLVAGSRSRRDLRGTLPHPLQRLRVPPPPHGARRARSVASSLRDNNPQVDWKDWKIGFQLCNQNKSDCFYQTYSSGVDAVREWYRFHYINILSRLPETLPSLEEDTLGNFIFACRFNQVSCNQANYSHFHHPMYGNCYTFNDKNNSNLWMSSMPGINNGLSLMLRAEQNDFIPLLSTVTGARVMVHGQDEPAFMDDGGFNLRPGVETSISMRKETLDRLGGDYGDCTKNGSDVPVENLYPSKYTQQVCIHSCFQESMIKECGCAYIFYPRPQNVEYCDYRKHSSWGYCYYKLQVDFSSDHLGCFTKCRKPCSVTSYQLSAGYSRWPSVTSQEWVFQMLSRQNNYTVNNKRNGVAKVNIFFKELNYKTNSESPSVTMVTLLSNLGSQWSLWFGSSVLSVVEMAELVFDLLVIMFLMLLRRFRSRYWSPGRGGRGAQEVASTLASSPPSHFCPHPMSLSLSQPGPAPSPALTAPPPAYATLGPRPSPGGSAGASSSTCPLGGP
Sequence (P51168 whole entry): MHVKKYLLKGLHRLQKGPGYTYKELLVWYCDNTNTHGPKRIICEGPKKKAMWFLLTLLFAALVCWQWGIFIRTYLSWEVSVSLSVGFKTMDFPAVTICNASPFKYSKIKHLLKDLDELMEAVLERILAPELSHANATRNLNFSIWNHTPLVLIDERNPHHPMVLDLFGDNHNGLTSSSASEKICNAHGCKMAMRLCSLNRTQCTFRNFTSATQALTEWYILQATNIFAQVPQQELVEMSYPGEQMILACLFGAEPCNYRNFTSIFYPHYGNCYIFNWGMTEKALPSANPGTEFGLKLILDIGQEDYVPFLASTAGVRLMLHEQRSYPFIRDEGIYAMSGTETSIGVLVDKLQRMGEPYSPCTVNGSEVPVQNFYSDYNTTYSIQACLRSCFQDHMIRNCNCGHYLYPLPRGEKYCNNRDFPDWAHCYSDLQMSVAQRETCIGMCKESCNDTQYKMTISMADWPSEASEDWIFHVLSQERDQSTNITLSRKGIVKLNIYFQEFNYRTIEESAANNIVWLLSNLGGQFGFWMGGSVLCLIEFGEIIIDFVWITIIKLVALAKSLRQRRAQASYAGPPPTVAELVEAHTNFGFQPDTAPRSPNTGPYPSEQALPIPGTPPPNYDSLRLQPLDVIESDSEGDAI
Sequence (P51170 whole entry): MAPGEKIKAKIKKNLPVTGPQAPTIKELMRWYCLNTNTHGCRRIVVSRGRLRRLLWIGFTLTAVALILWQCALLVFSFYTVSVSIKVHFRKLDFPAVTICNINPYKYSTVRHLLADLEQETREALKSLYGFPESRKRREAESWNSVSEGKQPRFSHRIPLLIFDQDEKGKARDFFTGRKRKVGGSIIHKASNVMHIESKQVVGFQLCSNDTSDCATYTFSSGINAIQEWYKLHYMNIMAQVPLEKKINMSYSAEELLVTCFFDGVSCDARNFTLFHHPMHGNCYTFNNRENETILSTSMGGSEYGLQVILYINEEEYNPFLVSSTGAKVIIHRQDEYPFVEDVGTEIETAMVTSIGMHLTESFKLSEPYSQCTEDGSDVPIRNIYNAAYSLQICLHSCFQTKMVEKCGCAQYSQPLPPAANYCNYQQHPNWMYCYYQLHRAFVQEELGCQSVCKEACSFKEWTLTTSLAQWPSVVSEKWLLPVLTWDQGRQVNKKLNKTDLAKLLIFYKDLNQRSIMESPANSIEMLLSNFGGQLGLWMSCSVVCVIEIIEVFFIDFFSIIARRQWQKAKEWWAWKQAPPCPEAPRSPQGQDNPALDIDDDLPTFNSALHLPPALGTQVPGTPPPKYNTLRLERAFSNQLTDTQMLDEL
Structures can show the parent of a compound that is named as a salt.
Below, each entry is listed with its recorded IC50.
Value and unit, in that order.

Nc1nc(N)c(C(=O)NC[C@@H]2CCCN2)nc1Cl [Example 9, hydrochloride] | 2740 nM

// IC50 (epithelial sodium channel (ENaC) (Homo sapiens, UniProt P37088+P51168+P51170)) for N=C(N)N[C@@H](CCCCNC(=O)Cc1ccc(OCc2ccccc2)cc1)CNC(=O)c1nc(Cl)c(N)nc1N [Example 27, trifluoroacetate] = 200 nM

// IC50 (epithelial sodium channel (ENaC) (Homo sapiens, UniProt P37088+P51168+P51170)) for CCC[C@@H](CNC(=O)c1nc(Cl)c(N)nc1N)NCCCc1ccc(OC)cc1 [Example 26, hydrochloride] = 60 nM

The reported measurements were obtained from patent US8664228B2.
